# assay.target: HIV-1 protease (Human immunodeficiency virus type 1 group M subtype B, UniProt P03369)
# assay.explanation: biochemical
outcome.measure: HIV-1 Protease Therapeutic Index (LD50 /IC50)

These recorded examples may help you get a feel for the data.
# molecule, reported
data = [
    ("CSCC(O)(CCCN1CCC(O)(c2ccc(Cl)cc2)CC1)c1ccc(F)cc1 (stereo not drawn) [UCSF39]", 1.2),
    ("OC1(c2ccc(Cl)cc2)CCN(CCN(Cc2ccccc2)Cc2ccccc2)CC1 [UCSF46]", 0.7),
]

Please look up its HIV-1 Protease Therapeutic Index (LD50 /IC50): OC1(c2ccc(Cl)cc2)CCN(CCCC2(c3ccc(F)cc3)SCc3ccc(cc3)CS2)CC1 [UCSF22] 5(0.5)

Which HIV-1 Protease Therapeutic Index (LD50 /IC50) is listed for ON=C(CCCN1CCC(O)(c2ccc(Cl)cc2)CC1)c1ccc(F)cc1 [UCSF4] ? 0.7

Consider the molecule shown here: Cc1ccc(C(=O)CC(CN2CCC(O)(c3ccc(Cl)cc3)CC2)c2ccccc2)cc1 (stereo not drawn) [UCSF43] What is its recorded HIV-1 Protease Therapeutic Index (LD50 /IC50)? 7(1)

Item under review: OC1(c2ccc(Cl)cc2)CCN(CCCC(O)(c2ccccc2)c2ccc(-c3ccccc3)cc2)CC1 (stereo not drawn) [UCSF33] . Reported HIV-1 Protease Therapeutic Index (LD50 /IC50)? 1.4

Record request: HIV-1 Protease Therapeutic Index (LD50 /IC50) value, item OC1(c2ccccc2)CCN(CCCC2(c3ccc(F)cc3)OCCO2)CC1 [UCSF28] 1.2

Fill blank: measured HIV-1 Protease Therapeutic Index (LD50 /IC50) of the molecule OC1(c2ccc(Cl)cc2)CCN(CCCC(O)(c2ccccc2)c2ccc(F)cc2)CC1 (stereo not drawn) [UCSF24] is ____. 0.4

Item under review: OC1(c2ccc(Cl)cc2)CCN(CCCC(O)(Cc2ccccc2)c2ccc(F)cc2)CC1 (stereo not drawn) [UCSF25] . Reported HIV-1 Protease Therapeutic Index (LD50 /IC50)? 0.2

====

Recorded measurements of CC50 at 24 h, one per entry
# assay.explanation: in vitro
# details: african green monkey, cos-7 cells
Numeric answer only, unit µM assumed.

In the examples that follow, each entry is paired with its recorded CC50 at 24 h.
# molecule, CC50 at 24 h / µM
measured = [
    ("OC1(c2ccc(Cl)cc2)CCN(CC#CC2(c3ccccc3)CO2)CC1 (stereo not shown) [UCSF84]", 50),
    ("OC1(C#CC2(c3ccccc3)CO2)CCN(Cc2ccccc2)CC1 (stereo not shown) [UCSF70]", 35),
    ("O=C(/C=C/C[N+]1([O-])CCC(O)(c2ccc(Cl)cc2)CC1)c1ccc(F)cc1 (stereo not shown) [UCSF115]", 200),
]

// query CC50 at 24 h value for entry O=C(C=C(CN1CCC(O)(c2ccc(Cl)cc2)CC1)SCCO)c1ccccc1 [UCSF178] 75

====

# assay.target: HIV-2 protease (Human immunodeficiency virus type 2 subtype A)
# Construct: the coding region of the 99-amino acid protease; made in house; host or cells: Saccharomyces cerevisiae strain AB110, plasmid pHIV2PR115
# Sequence (P04584 514-612 limits assumed): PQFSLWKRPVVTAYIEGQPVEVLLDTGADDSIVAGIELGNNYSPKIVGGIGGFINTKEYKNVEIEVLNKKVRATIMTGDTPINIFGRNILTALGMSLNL
# assay.explanation: biochemical
# details: 1M NaCl
Known IC50 of a selection of compounds
Give just the numeric value; µM need not be written.

Solved entries:
# compound, measurement.unit, IC50
measured = [
    ("Cc1ccc(C(=O)CC(CN2CCC(O)(c3ccc(Cl)cc3)CC2)c2ccccc2)cc1 (centres unmarked) [UCSF43]", "µM", 27),
    ("OC1(c2ccc(Cl)cc2)CCN(CCC[Si](c2ccccc2)(c2ccccc2)c2ccccc2)CC1 [UCSF47]", "µM", 1.5),
    ("OC1(c2ccc(Cl)cc2)CCN(CCCC(O)(c2ccccc2)c2cccc(-c3ccccc3)c2)CC1 (centres unmarked) [UCSF57]", "µM", 14),
]

Lab note: next compound to report on.
Using the record for C#CCC(CCN1CCC(O)(c2ccc(Cl)cc2)CC1)C(=O)c1ccc(F)cc1 (centres unmarked) [UCSF68] , report its IC50. 48
